- TARGET UNDER TEST: T1, IL23R_huFC (human, UniProt Q5VWK5 24-353)
- T1 sequence (looked up): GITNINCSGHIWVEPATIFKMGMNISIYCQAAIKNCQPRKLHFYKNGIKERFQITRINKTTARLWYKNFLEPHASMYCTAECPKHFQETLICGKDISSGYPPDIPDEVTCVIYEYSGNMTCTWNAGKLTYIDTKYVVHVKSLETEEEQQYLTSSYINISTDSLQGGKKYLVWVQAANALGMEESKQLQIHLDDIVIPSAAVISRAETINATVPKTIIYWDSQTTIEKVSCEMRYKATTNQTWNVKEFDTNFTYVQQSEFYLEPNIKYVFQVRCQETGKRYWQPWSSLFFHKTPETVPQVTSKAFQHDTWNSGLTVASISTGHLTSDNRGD
- TEST PROTOCOL: IL23-IL23R competitive ELISA
pIC50: −log10 of the molar value. Bridges are numbered along the chain shown (N, C = ends). [ ]: non-standard residue; d: D form. NMeK = CN[C@@H](CCCCN)C(=O)O; AEA = NCCOCC(=O)O
PARAMETER: pIC50

QUERY: Reported pIC50, binder Ac-CQTWQCYWR[NMeK]NG[AEA][dK]-NH2 (disulfide 1-6; SMILES CC(=O)N[C@H]1CSSC[C@@H](C(=O)N[C@@H](Cc2ccc(O)cc2)C(=O)N[C@@H](Cc2c[nH]c3ccccc23)C(=O)N[C@@H](CCCNC(=N)N)C(=O)N(C)[C@@H](CCCCN)C(=O)N[C@@H](CC(N)=O)C(=O)NCC(=O)NCCOCC(=O)N[C@H](CCCCN)C(N)=O)NC(=O)[C@H](CCC(N)=O)NC(=O)[C@H](Cc2c[nH]c3ccccc23)NC(=O)[C@H]([C@@H](C)O)NC(=O)[C@H](CCC(N)=O)NC1=O) [Ac-CQTWQCYWR-[N-MeLys]-NG-[AEA]-[(D)-Lys]-NH2] : ____
RESULT: < 6.00

Data provenance: patent US20190300590A1
